All figures here come from patent US20190248900A1.

molecular target: T1, M4; assay: scFv-phage ELISA
T1 construct: also called PD1 mutant M4
measurement.name: OD490
One number for each entry.

- binder: "PD1-49A2 (antibody, V domains shown, scFv-phage in the screening ELISA; whole IgG in the other assays; also called Parent 49A2) VH: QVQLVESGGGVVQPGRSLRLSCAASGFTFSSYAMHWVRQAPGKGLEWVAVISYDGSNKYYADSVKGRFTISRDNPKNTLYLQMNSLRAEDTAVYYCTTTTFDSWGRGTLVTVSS VL: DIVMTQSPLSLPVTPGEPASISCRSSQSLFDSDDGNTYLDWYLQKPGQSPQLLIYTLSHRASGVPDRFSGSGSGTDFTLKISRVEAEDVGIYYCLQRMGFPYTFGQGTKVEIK"
  OD490: 3.9

Lab note: next binder to report on.
Incoming: Name the recorded OD490 for PD1-31F3 (antibody, V domains shown, scFv-phage in the screening ELISA; later whole IgG) VH: QVQLVQSGAEVKKPGSSVKVSCKASGGTFSSYAISWVRQAPGQGLEWMGGIIPLFSTAHSAQKFQGRVTITADESSSTAYMELSSLRSEDTAVYYCAKHKGLPFDWSPDGFDTWGQGTMVTVSS VL: QFVLTQPPSVSGAPGQRVIISCTGSSSNIGAGYDVHWYQQLPGTAPKVLIYGNSDRPSGVPDRFSASKSATSASLAITGLQAEDEADYYCQSYDSSLSGYVFGTGTKVTVL .
Outgoing: 2.7
